- System tested: p53 Y220C (Homo sapiens, UniProt P04637, Y220C)
- Assay info: Luciferase Reporter Assay (Luc), p53 response element, NClH1299 cells with inducible p53 Y220C
- Format: cell-based
- Test parameters: luciferase reporter, NClH1299 inducible p53 Y220C, 6 hour; 10 uM tool compound as positive control
Experimental endpoint: Emax

{"Chemical string": "CNC(=O)c1ccc(NCC#Cc2nc3c(N[C@H]4C[C@@H]5CC[C@@H](N5)[C@H]4F)cccn3c2SC(F)(F)F)c(OC)c1", "Experimental endpoint": "Emax", "Result": "80 to 90%"}
{"Chemical string": "COc1ccc(S(C)(=O)=O)cc1NCC#Cc1nc2c(N[C@@H]3CCN(C)C[C@@H]3F)cccn2c1SC(F)(F)F", "Experimental endpoint": "Emax", "Result": "80 to 90%"}
{"Chemical string": "COc1cc(S(C)(=O)=O)ccc1NCC#Cc1nc2c(NC3CCN(C(C)=O)CC3)cccn2c1CC(F)(F)F", "Experimental endpoint": "Emax", "Result": "80 to 90%"}
{"Chemical string": "CNC(=O)c1ccc(OC)c(NCC#Cc2nn3c(N[C@@H]4CCN(C)C[C@@H]4F)cccc3c2SC(F)F)c1", "Experimental endpoint": "Emax", "Result": "> 90%"}
{"Chemical string": "CCc1c(C#CCNc2ccc(S(C)(=O)=O)cc2OC)nc2c(N[C@@H]3CCN(C)C[C@@H]3F)cccn12", "Experimental endpoint": "Emax", "Result": "< 70%"}
{"Chemical string": "C[C@@H](O)C#Cc1nc2c(N[C@@H]3CCN(C)C[C@@H]3F)cccn2c1CC(F)(F)F", "Experimental endpoint": "Emax", "Result": "< 70%"}
{"Chemical string": "COc1cc(S(C)(=O)=O)ccc1NCC#Cc1nc2c(NC3CC4(C3)CN(C)C4)cccn2c1CC(F)(F)F", "Experimental endpoint": "Emax", "Result": "70 to 80%"}
